Just for reference, the supplement of paper PMC10567573 is where these values come from.

B1: PBXIP1 (parent)
chain: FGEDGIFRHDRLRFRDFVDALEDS

variants of: B1; test: protein stability index of a GFP-peptide fusion (GPS, HEK-293T) (PSI 1-6); higher = more stable; settings: c terminus: a fixed tail appended;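 also: lentivirally expressed fusions sorted by FACS into six bins by GFP to DsRed ratio, PSI derived from sequencing read proportions per bin multiplied by bin number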
# binarize protein stability index: threshold 3 inclusive, high side 1, low side 0

FGEDCIFRHDRLRFRDFVDALEDS [G5C]: 0
FGEDGGFRHDRLRFRDFVDALEDS [I6G]: 1
FGEDGIFRHDRLRFRDFVSALEDS [D19S]: 0
FGEDGIFRHDRLRFRDSVDALEDS [F17S]: 1
FGEDGIFRHDRLRFRDFVDALEYS [D23Y]: 0
HGEDGIFRHDRLRFRDFVDALEDS [F1H]: 1
MGEDGIFRHDRLRFRDFVDALEDS [F1M]: 1
FGEDGIFRHDRLRFRDFVDALWDS [E22W]: 0
FGEDGIKRHDRLRFRDFVDALEDS [F7K]: 1
